Reference for the values: ChEMBL document CHEMBL3233010

Biological target: Epidermal growth factor receptor (Homo sapiens)
Assay: Inhibition of wild type EGFR domain (unknown origin) expressed in baculovirus expression system using Poly(Glu:Tyr)4:1 substrate after 60 mins by ELISA
pIC50: −log10 of the molar value.
Classification field: enter criterion met for pIC50 values not below 7, criterion not met for values below it.

compound | category
CSC1CCN(C/C=C/C(=O)Nc2cc3c(Nc4ccc(F)c(Cl)c4)ncnc3s2)CC1 | criterion met

Now consider a different compound.
Decide: is the reported value of pIC50 for "CN(C)CCCN(C)CC(=O)Nc1cc2c(Nc3ccc(F)c(Cl)c3)ncnc2s1" equal to or greater than 7?
criterion not met

###

Molecular target: Receptor tyrosine-protein kinase erbB-2 (Homo sapiens, UniProt P04626)
assayMetric: IC50 (nM)
Report as a plain number; the unit nM is understood.

compound | target | IC50, nM
C=CC(=O)Nc1cc2c(Nc3ccc(F)c(Cl)c3)ncnc2s1 | Receptor tyrosine-protein kinase erbB-2 (Homo sapiens, UniProt P04626) | 40

Now let's try a different one.
# get_value(readout='IC50', item= O=C(/C=C/CN1CC2CCC1C(=O)C2)Nc1cc2c(Nc3ccc(F)c(Cl)c3)ncnc2s1 (configuration not stated) )
30

###

Molecular target: Epidermal growth factor receptor (Homo sapiens, UniProt P00533, L858R/T790M)
Sequence (P00533 25-1210 T790M/L858R limits assumed): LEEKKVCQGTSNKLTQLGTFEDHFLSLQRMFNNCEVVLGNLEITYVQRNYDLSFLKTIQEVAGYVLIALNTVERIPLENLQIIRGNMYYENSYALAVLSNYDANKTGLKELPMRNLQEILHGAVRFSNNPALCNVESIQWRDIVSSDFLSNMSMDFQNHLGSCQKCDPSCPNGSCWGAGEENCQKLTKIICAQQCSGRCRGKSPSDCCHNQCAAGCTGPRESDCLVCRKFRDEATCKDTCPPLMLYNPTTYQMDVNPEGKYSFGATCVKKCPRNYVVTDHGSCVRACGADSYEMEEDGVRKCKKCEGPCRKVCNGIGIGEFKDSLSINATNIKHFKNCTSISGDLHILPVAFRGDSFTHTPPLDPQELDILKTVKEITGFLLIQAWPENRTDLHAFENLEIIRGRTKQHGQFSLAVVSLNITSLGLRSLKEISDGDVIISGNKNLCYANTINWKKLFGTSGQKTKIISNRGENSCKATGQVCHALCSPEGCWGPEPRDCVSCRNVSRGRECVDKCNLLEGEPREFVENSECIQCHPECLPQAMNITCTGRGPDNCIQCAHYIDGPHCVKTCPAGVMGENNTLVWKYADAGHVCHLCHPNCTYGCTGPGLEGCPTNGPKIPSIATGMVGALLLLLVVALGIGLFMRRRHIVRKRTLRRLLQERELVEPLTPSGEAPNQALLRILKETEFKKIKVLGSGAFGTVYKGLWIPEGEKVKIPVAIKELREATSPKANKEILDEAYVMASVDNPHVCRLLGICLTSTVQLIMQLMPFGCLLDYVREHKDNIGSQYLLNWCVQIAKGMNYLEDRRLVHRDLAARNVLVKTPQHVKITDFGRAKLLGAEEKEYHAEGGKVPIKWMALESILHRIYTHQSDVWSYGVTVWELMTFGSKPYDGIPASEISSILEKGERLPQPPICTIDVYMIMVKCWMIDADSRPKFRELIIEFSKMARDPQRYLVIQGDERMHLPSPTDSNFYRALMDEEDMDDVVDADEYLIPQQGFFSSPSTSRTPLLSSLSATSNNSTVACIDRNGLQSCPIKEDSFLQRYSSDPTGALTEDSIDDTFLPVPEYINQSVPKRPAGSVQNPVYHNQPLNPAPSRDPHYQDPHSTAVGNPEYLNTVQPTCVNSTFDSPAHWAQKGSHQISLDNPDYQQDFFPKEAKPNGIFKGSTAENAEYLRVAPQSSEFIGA
Assay: Inhibition of EGFR T790M/L858R double mutant (unknown origin) expressed in baculovirus expression system using Poly(Glu:Tyr)4:1 substrate after 60 mins by ELISA
assayMetric: pIC50
// pIC50: -log10(molar conc.)

compound | recordedResult
CSC1CCN(C/C=C/C(=O)Nc2cc3c(Nc4ccc(F)c(Cl)c4)ncnc3s2)CC1 | 7.59

Which pIC50 value belongs to "O=C(/C=C/CNC1CCOCC1)Nc1cc2c(Nc3ccc(F)c(Cl)c3)ncnc2s1" ?
7.49

Also "CN(C)CCCNC/C=C/C(=O)Nc1cc2c(Nc3ccc(F)c(Cl)c3)ncnc2s1" ?
9.15

Param item: "O=C(/C=C/CN1CCS(=O)(=O)CC1)Nc1cc2c(Nc3ccc(F)c(Cl)c3)ncnc2s1"
8.15

Please give the result for "CN(C)CCCC(=O)Nc1cc2c(Nc3ccc(F)c(Cl)c3)ncnc2s1" too.
5.74

Try this compound too: "O=C(CCl)Nc1cc2c(Nc3ccc(F)c(Cl)c3)ncnc2s1"
6.15

Try this compound next: "CN1CCN(C/C=C/C(=O)Nc2cc3c(Nc4ccc(F)c(Cl)c4)ncnc3s2)CC1"
8.52

###

# pIC50 measurements, system: Fibroblast growth factor receptor 1 (Homo sapiens, UniProt P11362)
# Sequence (P11362 whole entry): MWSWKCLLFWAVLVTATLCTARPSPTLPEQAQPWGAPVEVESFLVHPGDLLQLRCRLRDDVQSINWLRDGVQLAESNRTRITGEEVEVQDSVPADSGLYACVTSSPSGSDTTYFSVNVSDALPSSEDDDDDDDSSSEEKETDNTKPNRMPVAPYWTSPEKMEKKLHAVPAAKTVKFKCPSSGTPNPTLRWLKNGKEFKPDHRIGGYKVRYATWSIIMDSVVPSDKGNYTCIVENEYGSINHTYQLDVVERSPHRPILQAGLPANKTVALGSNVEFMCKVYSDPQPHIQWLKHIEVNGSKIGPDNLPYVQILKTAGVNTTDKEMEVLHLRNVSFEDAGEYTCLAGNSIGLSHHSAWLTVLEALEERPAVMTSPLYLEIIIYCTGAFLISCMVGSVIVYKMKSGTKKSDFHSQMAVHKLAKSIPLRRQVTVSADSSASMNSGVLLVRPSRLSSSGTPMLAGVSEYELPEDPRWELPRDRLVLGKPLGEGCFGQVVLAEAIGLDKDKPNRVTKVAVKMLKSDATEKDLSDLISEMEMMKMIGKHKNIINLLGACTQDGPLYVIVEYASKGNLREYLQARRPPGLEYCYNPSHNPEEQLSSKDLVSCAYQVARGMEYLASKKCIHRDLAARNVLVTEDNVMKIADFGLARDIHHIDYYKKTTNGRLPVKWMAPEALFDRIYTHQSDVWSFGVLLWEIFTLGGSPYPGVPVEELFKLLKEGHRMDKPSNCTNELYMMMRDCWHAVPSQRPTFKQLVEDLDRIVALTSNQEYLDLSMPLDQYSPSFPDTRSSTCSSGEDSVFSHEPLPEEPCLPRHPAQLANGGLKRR
pIC50: −log10 of the molar value.

compound | target | pIC50
C=CC(=O)Nc1cc2c(Nc3ccc(F)c(Cl)c3)ncnc2s1 | Fibroblast growth factor receptor 1 (Homo sapiens, UniProt P11362) | < 5.00

For the next question, use this compound.
pIC50 for O=C(/C=C/CN1CC2CCC1C(=O)C2)Nc1cc2c(Nc3ccc(F)c(Cl)c3)ncnc2s1 (configuration not stated) ?
< 5.00

###

Biological target: Epidermal growth factor receptor (Homo sapiens, UniProt P00533)
Sequence (P00533 whole entry): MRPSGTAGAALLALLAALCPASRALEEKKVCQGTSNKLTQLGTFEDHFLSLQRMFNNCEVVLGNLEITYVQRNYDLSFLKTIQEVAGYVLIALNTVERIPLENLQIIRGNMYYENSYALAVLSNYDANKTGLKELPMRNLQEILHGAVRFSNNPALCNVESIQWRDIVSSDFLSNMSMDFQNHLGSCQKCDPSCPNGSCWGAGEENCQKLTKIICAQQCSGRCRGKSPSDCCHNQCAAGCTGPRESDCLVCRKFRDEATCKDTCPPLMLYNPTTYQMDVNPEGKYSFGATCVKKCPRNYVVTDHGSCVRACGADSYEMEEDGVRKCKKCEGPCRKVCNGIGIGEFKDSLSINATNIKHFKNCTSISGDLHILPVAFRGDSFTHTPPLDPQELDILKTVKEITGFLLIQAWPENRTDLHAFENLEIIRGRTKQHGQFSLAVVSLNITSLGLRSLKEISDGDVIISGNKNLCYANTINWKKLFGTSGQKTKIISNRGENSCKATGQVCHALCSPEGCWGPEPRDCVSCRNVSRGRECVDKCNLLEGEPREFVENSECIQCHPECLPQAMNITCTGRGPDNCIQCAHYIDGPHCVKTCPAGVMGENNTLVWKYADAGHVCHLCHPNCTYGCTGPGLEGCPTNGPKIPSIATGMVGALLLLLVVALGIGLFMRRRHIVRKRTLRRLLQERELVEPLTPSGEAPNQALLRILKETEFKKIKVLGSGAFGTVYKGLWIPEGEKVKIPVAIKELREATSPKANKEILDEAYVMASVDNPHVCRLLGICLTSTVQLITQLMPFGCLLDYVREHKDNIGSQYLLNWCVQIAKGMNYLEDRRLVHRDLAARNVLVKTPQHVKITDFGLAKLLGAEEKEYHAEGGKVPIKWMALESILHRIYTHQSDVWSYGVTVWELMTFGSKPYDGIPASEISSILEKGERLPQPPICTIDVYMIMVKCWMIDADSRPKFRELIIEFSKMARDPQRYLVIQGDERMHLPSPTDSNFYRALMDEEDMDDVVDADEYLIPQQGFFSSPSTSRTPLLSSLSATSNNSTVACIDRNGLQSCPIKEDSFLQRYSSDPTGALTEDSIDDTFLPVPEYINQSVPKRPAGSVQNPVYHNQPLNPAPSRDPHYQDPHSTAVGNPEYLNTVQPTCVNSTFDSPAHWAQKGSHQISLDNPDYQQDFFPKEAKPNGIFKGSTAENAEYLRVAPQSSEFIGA
pIC50: −log10 of the molar value.
Kindly return satisfied if reported pIC50 is no lower than 7; return not satisfied if it is lower.

A selection of reference data follows.
chemicalStructure | target | category
CCN1CCN(C/C=C/C(=O)Nc2cc3c(Nc4ccc(F)c(Cl)c4)ncnc3s2)CC1 | Epidermal growth factor receptor (Homo sapiens, UniProt P00533) | satisfied
COC(CN(C)C/C=C/C(=O)Nc1cc2c(Nc3ccc(F)c(Cl)c3)ncnc2s1)OC | Epidermal growth factor receptor (Homo sapiens, UniProt P00533) | satisfied
O=C(/C=C/CN1CCCCC1)Nc1cc2c(Nc3ccc(F)c(Cl)c3)ncnc2s1 | Epidermal growth factor receptor (Homo sapiens, UniProt P00533) | satisfied
COC(=O)CCCC(=O)Nc1cc2c(Nc3ccc(F)c(Cl)c3)ncnc2s1 | Epidermal growth factor receptor (Homo sapiens, UniProt P00533) | not satisfied

Hi, just wondering whether "O=C(/C=C/CN1CCS(=O)(=O)CC1)Nc1cc2c(Nc3ccc(F)c(Cl)c3)ncnc2s1" shows pIC50 of 7 or higher.
satisfied

And "C=CC(=O)Nc1cc2c(Nc3ccc(F)c(Cl)c3)ncnc2s1" ?
satisfied

What would you report for "O=C(CN1CCN(CCO)CC1)Nc1cc2c(Nc3ccc(F)c(Cl)c3)ncnc2s1" ?
not satisfied

Record: "CCC(CC)C(=O)Nc1cc2c(Nc3ccc(F)c(Cl)c3)ncnc2s1"
not satisfied

Further, for "COC(=O)CC(=O)Nc1cc2c(Nc3ccc(F)c(Cl)c3)ncnc2s1" ?
not satisfied

Also check "CN(C)CCCNC/C=C/C(=O)Nc1cc2c(Nc3ccc(F)c(Cl)c3)ncnc2s1"
not satisfied

Check "CS(=O)(=O)CCNC/C=C/C(=O)Nc1cc2c(Nc3ccc(F)c(Cl)c3)ncnc2s1" too.
satisfied

Can you check "O=C(/C=C/CN1CCC(F)(F)C1)Nc1cc2c(Nc3ccc(F)c(Cl)c3)ncnc2s1" next?
satisfied

Also check "O=C(CN1CCC(CCO)CC1)Nc1cc2c(Nc3ccc(F)c(Cl)c3)ncnc2s1"
not satisfied

Can you handle "CCCCC(=O)Nc1cc2c(Nc3ccc(F)c(Cl)c3)ncnc2s1" next?
not satisfied

Entry "CC(C)N1CCN(C/C=C/C(=O)Nc2cc3c(Nc4ccc(F)c(Cl)c4)ncnc3s2)CC1" please
satisfied

Let us now turn to "C/C=C(\C)C(=O)Nc1cc2c(Nc3ccc(F)c(Cl)c3)ncnc2s1"
not satisfied

Note, next up: "O=C(/C=C/CN1CC(O)C1)Nc1cc2c(Nc3ccc(F)c(Cl)c3)ncnc2s1"
satisfied

One more molecule: "CN1CCN(CC(=O)Nc2cc3c(Nc4ccc(F)c(Cl)c4)ncnc3s2)CC1"
not satisfied

###

System: NCI-H1975
Assay: Antiproliferative activity against gefitinib-resistant human NCI-H1975 cells assessed as growth inhibition after 72 hrs by SRB assay
Format: functional, cell-based
Conditions: NCI-H1975, 72 h
assayMetric: log10 IC50 (log10 of the value in µM)
The common logarithm of IC50 in µM is what is listed.

molecule | log10 IC50
CC(C)N1CCN(C/C=C/C(=O)Nc2cc3c(Nc4ccc(F)c(Cl)c4)ncnc3s2)CC1 | 1.32
C=CCOC(=O)Nc1cc2c(Nc3ccc(F)c(Cl)c3)ncnc2s1 | 1.96
O=C(/C=C/CNC1CCOCC1)Nc1cc2c(Nc3ccc(F)c(Cl)c3)ncnc2s1 | 0.85

What value of measured log10 IC50 is listed for "O=C(/C=C/CN1CC2(COC2)C1)Nc1cc2c(Nc3ccc(F)c(Cl)c3)ncnc2s1" ?
0.74

Another molecule to look at: "O=C(/C=C/CN1CCC(F)(F)C1)Nc1cc2c(Nc3ccc(F)c(Cl)c3)ncnc2s1"
1.20

Next record, please: "O=C(/C=C/CN1CCOCC1)Nc1cc2c(Nc3ccc(F)c(Cl)c3)ncnc2s1"
1.07

Do the same for "O=C(/C=C/CNCc1ncccn1)Nc1cc2c(Nc3ccc(F)c(Cl)c3)ncnc2s1" please
1.72

"O=C(CN1CCC(CCO)CC1)Nc1cc2c(Nc3ccc(F)c(Cl)c3)ncnc2s1" , same question.
1.92

Entry "O=C(/C=C/CN1CCC2(CC1)OCCO2)Nc1cc2c(Nc3ccc(F)c(Cl)c3)ncnc2s1" please
0.82

Please give the result for "CCN1CCN(C/C=C/C(=O)Nc2cc3c(Nc4ccc(F)c(Cl)c4)ncnc3s2)CC1" too.
1.31

Same thing, different molecule: "O=C(/C=C/CN1CCCCC1)Nc1cc2c(Nc3ccc(F)c(Cl)c3)ncnc2s1"
0.81

Now the same for O=C(/C=C/CN1CC2CCC1C(=O)C2)Nc1cc2c(Nc3ccc(F)c(Cl)c3)ncnc2s1 (stereo unspecified)
1.08

Check "COCCNC/C=C/C(=O)Nc1cc2c(Nc3ccc(F)c(Cl)c3)ncnc2s1" too.
1.62

###

Target: Vascular endothelial growth factor receptor 1 (Homo sapiens, UniProt P17948)
Assay: Inhibition of recombinant Flt-1 (unknown origin) using Poly(Glu:Tyr)4:1 after 60 mins by ELISA
pIC50: −log10 of the molar value.
Entries and their pIC50

molecule | target | pIC50
O=C(/C=C/CN1CC2CCC1C(=O)C2)Nc1cc2c(Nc3ccc(F)c(Cl)c3)ncnc2s1 (configuration not stated) | Vascular endothelial growth factor receptor 1 (Homo sapiens, UniProt P17948) | < 5.00

Next molecule, please.
Return reported pIC50; argument: "C=CC(=O)Nc1cc2c(Nc3ccc(F)c(Cl)c3)ncnc2s1"
< 5.00

###

Here's a batch of molecules along with measured IC50 for UniProt:P08069.
Sequence (P08069 31-736 limits assumed): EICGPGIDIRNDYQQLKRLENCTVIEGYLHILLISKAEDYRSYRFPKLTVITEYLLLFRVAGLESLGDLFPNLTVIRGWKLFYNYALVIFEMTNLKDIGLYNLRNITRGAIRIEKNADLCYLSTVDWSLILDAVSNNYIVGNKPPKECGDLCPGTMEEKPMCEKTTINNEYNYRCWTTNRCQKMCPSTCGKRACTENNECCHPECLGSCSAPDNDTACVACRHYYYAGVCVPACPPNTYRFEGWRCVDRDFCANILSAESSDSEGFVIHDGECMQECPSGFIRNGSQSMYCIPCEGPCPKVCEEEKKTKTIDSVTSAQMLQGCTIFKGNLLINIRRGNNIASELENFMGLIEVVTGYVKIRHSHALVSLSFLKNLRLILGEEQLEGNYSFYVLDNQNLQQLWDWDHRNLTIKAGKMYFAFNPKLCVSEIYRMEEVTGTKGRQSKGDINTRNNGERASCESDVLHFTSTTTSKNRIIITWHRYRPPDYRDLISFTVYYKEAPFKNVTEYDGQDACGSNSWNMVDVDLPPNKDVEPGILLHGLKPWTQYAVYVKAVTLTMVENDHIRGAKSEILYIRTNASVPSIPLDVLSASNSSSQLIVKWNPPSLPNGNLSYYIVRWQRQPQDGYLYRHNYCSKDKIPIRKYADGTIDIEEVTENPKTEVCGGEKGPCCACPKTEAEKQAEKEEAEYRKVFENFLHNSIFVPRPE
Sequence (P08069 741-1367 limits assumed): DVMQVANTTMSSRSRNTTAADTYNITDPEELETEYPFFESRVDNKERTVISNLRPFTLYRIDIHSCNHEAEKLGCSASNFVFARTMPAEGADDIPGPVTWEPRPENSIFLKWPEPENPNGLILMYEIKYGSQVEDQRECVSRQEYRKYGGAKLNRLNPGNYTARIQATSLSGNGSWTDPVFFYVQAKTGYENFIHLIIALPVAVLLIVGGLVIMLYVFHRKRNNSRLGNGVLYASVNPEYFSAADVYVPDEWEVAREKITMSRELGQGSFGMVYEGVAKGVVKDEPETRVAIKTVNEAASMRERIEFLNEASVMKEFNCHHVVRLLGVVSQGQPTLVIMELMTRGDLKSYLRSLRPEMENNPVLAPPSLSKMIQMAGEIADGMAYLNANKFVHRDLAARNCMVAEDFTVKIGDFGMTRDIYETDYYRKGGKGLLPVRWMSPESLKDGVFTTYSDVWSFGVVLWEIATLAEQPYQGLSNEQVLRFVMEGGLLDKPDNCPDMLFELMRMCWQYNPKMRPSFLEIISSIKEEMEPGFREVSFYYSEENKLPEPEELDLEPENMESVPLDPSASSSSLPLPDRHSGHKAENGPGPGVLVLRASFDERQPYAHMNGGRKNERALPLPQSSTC

molecule | assayMetric | recordedResult
C=CC(=O)Nc1cc2c(Nc3ccc(F)c(Cl)c3)ncnc2s1 | IC50 | > 10 µM

Turning to the following molecule.
Return reported IC50; argument: O=C(/C=C/CN1CC2CCC1C(=O)C2)Nc1cc2c(Nc3ccc(F)c(Cl)c3)ncnc2s1 (configuration not stated)
> 10 µM
